FYI, the data here is from paper PMC12069340.

Assay: in vitro
Conditions: human, Relative Viability (%)
Structures can show the parent of a compound that is named as a salt.
Property: viability at 20 µM (%)
Answer format: numeric, % implied, no suffix.

// solved cases for viability at 20 µM follow
Compound	Property	Unit annotation	Observed result
OC(CCCN1CCCCC1)(c1ccccc1)c1ccccc1 [Diphenidol HCl]	viability at 20 µM	%	125
COc1ccc(C[C@@H]2c3cc(OC)c(OC)cc3CC[N@+]2(C)CCC(=O)OCCCCCOC(=O)CC[N@@+]2(C)CCc3cc(OC)c(OC)cc3[C@H]2Cc2ccc(OC)c(OC)c2)cc1OC [Cisatracurium Besylate]	viability at 20 µM	%	106
CC(C)(C)NCC(O)c1cc(O)cc(O)c1 (centres unmarked) [Terbutaline Sulfate]	viability at 20 µM	%	101
CN1CCN(CCCN2c3ccccc3Sc3ccc(Cl)cc32)CC1 [Prochlorperazine dimaleate, Prochlorperazine dimaleate salt]	viability at 20 µM	%	93.5

As a next step, examine the compound that follows.
## Input Item Cc1ccsc1C(=CCCN1CCC[C@@H](C(=O)O)C1)c1sccc1C has what recorded viability at 20 µM?
## Output 95.7

###

Test system: A/PuertoRico/8/1934 (H1N1) virus
Experiment: microbe, parasite or virus in culture
Format: cell-based, influenza A virus
Settings: Influenza A virus, H1N1, U-937, 48 h; read-out: NA Inhibition (%)
Counter-ions that a name gives are not always drawn.
Property: inhibition at 20 µM (%)
State just the number; it will be interpreted in %.

## Input Would you mind telling me what inhibition at 20 µM value was observed for CN(C)CCN(Cc1ccccc1)c1ccccn1 [Tripelennamine HCl] ?
## Output -0.2

## Input Further, for O=c1ccc2ccc(OCCCCN3CCN(c4cccc5sccc45)CC3)cc2[nH]1 ?
## Output 54

## Input // same read-out, input: CCN(Cc1ccc(Cl)nc1)/C(=C/[N+](=O)[O-])NC
## Output -32.4

## Input Same thing, different compound: C=CC[N+]1([C@H]2C[C@H]3[C@@H]4CC[C@H]5C[C@H](O)[C@@H](N6CCOCC6)C[C@]5(C)[C@H]4CC[C@]3(C)[C@H]2OC(C)=O)CCCC1 [Rocuronium Bromide]
## Output 16.7

## Input Here is the next compound: CN(C)CCc1c[nH]c2ccc(Cn3cncn3)cc12 [Rizatriptan Benzoate]
## Output 7.7

###

Test: Validation screen: cytotoxicity without viral infection
Details: human, uninfected U937 cells
Where a name gives a salt, the structure may show the parent alone.
Property: CC50 at 48 h (µM)
Expressed in µM, but write only the number.

Reference set, count: 4
Compound	Property	Observed result
CN(C)[C@@H](CCOc1cccc2ccccc12)c1ccccc1 [Dapoxetine HCl]	CC50 at 48 h	76.1
CN1CCCC(n2nc(Cc3ccc(Cl)cc3)c3ccccc3c2=O)CC1 (centres unmarked) [Azelastine HCl]	CC50 at 48 h	55.7
OC(CNCC(O)C1CCc2cc(F)ccc2O1)C1CCc2cc(F)ccc2O1 (centres unmarked) [Nebivolol]	CC50 at 48 h	33.3
OCc1cc(C(O)CNCCCCCCOCCCCc2ccccc2)ccc1O (centres unmarked) [Salmeterol Xinafoate]	CC50 at 48 h	40.2

Here is the next item to consider.
## Input Returns the measured CC50 at 48 h for the input compound. Input: CN1CCN(CCCN2c3ccccc3Sc3ccc(Cl)cc32)CC1 [Prochlorperazine dimaleate, Prochlorperazine dimaleate salt]
## Output 38.4
